# study-system: UniProt P09237
# Sequence (P09237 whole entry): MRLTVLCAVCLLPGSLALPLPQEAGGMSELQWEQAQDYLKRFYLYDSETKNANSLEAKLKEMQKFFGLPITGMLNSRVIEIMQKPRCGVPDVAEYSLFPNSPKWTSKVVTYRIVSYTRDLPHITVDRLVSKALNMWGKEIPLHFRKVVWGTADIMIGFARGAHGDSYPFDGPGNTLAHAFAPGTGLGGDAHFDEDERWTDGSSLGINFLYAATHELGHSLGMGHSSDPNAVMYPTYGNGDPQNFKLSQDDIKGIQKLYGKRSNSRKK
# assay-notes: In vitro inhibitory activity against human recombinant matrix metalloprotease 7
recorded-metric: pIC50
Hey, just a heads up that pIC50 is the negative log base 10 of the concentration in molar.

Consider the reported pIC50 for these molecules:
C=CCC(C(=O)NO)C(CC(C)C)C(=O)N[C@@H](Cc1ccccc1)C(=O)c1ncco1 (single isomer, unassigned) :: 8.38
CC(C)C[C@H]1C(=O)N[C@H](C(=O)c2ccc(CO)cc2)Cc2ccc(cc2)OCCCC[C@@H]1C(=O)NO :: 8.82

Now for another entry.
Query for UniProt P09237: what pIC50 does the record show for C=CCC(C(=O)NO)C(CC(C)C)C(=O)N[C@@H](Cc1ccccc1)C(=O)c1cc[nH]c1 (single isomer, unassigned) ? 8.10
